All values here come from paper PMC9154793.

Test: In vivo pharmacokinetics study in Balb/c mice
Details: female, Balb/c, mouse, plasma, iv, i.v. 10 mg/kg, read-out: AUC0→∞ i.v.
Catalogue of AUC(0-inf) values
Supply the numeric figure in ng·h/mL, leaving out any unit text.

| STRUCTURE SMILES | AUC(0-inf) (ng·h/mL) |
| --- | --- |
| Cc1c(C#N)cccc1-c1cc(-c2cn(Cc3cccc(C#N)n3)nn2)nc(N)n1 | 17300 |

*Q* Suppose we examine the compound Cc1c(C#N)cccc1-c1cc(-c2cn(Cc3cccc(C(N)=O)n3)nn2)nc(N)n1 ; what AUC(0-inf) value has been reported?
*A* 4480
